From: patent US20260042834A1

Reported EC50 values for a set of binders
Target: T1, CRH (CT-Biotin) (human and mouse (same sequence), biotin on an added C-terminal K (CRH-K-Biotin))
T1 construct: also called Peptide 4 (CRH-Biotin)
T1 peptide: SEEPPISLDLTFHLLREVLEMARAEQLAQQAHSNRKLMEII
Assay: ELISA, biotinylated CRH on streptavidin plate
Endpoint label: EC50 (nM)

* PR302050 (antibody, human IgG1, kappa, V domains shown, humanized variant of PR301777) VH: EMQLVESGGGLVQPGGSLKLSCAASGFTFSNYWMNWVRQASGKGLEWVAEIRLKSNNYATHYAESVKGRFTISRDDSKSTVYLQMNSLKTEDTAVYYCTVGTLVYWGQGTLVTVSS VL: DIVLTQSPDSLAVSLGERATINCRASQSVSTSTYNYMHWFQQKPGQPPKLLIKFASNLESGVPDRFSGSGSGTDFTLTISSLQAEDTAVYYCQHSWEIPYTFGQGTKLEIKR | 0.01
* PR301777 (antibody, human IgG1, kappa, V domains shown, Series 5; mouse variable domains, human IgG1 wildtype Fc) VH: EMKLEESGGGLVQPGGSMKLSCVASGFTFSNYWMNWVRQSPEKGLEWVAEIRLKSNNYATHYAESVKGRFTISRDDSKSGVYLQMNNLGAEDTGIYYCTVGTLVYWGQGTLVTVSA VL: DIVLTQSPASLAVSLGQRATISCRASQSVSTSTYNYMHWFQQKPGQPPKLLIKFASNLESGVPARFSGSGSGTDFTLNIHPVEEEDTATFYCQHSWEIPYTFGGGTKLEIKR | 0.043
* PR302052 (antibody, human IgG1, kappa, V domains shown, humanized variant of PR301777) VH: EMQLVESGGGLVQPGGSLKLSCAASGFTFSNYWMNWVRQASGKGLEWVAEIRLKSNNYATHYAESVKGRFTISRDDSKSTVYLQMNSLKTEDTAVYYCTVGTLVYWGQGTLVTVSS VL: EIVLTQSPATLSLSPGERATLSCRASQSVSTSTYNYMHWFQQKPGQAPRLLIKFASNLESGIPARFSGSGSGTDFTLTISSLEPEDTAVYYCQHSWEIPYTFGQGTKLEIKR | 0.018
* PR302043 (antibody, human IgG1, kappa, V domains shown, humanized variant of PR301777) VH: EVQLVESGGGLVQPGGSLKLSCAASGFTFSNYWMNWVRQASGKGLEWVGEIRLKSNNYATHYAESVKGRFTISRDDSKNTAYLQMNSLKTEDTAVYYCTRGTLVYWGQGTLVTVSS VL: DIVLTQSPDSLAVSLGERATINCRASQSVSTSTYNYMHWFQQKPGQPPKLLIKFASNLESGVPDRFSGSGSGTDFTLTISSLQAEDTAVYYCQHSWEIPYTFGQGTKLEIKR | 0.03
* PR302064 (antibody, human IgG1, kappa, V domains shown, humanized variant of PR301777) VH: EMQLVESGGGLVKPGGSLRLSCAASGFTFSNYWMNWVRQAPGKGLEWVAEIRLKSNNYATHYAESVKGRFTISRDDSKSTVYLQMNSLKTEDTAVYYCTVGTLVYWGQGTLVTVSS VL: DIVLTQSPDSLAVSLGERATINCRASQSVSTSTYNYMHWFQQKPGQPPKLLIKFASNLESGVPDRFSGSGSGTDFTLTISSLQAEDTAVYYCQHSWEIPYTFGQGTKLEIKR | 0.022
